Biological target: Dual specificity mitogen-activated protein kinase kinase 7 (Homo sapiens, UniProt O14733)
Sequence (O14733 whole entry): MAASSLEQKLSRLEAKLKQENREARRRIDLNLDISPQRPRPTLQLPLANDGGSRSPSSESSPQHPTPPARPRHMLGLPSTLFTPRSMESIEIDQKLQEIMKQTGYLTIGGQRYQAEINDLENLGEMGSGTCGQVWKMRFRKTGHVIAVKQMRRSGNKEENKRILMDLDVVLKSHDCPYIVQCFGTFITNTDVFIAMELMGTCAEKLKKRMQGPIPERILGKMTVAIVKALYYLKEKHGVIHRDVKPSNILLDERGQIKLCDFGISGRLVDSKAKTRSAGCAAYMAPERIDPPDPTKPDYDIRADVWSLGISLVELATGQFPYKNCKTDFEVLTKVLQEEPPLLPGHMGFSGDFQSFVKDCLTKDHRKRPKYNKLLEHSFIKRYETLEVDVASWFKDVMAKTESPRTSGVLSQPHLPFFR
Experiment: Inhibition of GST-tagged human MKK7 expressed in Escherichia coli (BL21(DE3) pLysS) co-expressing human MEKK catalytic domain using biotinylated and GST-tagged rat GST-KN-SAPKalpha substrate incubated for 1 hr by time-resolved fluorescence based assay
pIC50: −log10 of the molar value.
measure name: pIC50

Cc1nc(N2CCC(O)CC2)c2c(n1)[nH]c1ccc(O)cc12; > 6.00
Cc1nc(N2CCCCC2)c2c(n1)[nH]c1ccc(C(=O)O)cc12; > 6.00
NC(=O)c1ccc2[nH]c3ncnc(N4CCC(CO)CC4)c3c2c1; > 6.00
Nc1nc(N2CCCC(O)C2)c2c(n1)[nH]c1ccc(O)cc12 (stereo unspecified); > 6.00
OC[C@H](Cc1ccccc1)Nc1ncnc2[nH]c3ccc(O)cc3c12; > 6.00

*Q* pIC50 lookup needed for Nc1nc(N(Cc2ccccc2)Cc2ccccc2)c2c(n1)[nH]c1ccc(O)cc12 , thanks.
*A* < 5.00

*Q* pIC50 lookup needed for Nc1nc(NC2CCCC2)c2c(n1)[nH]c1ccc(O)cc12 , thanks.
*A* > 6.00

*Q* pIC50 lookup needed for NC(=O)c1ccc2[nH]c3ncnc(N(CCO)Cc4ccccc4)c3c2c1 , thanks.
*A* > 6.00

---

molecular target: Dual specificity mitogen-activated protein kinase kinase 4 (Homo sapiens); experiment: Inhibition of GST-tagged human MKK4 expressed in Escherichia coli (BL21(DE3) pLysS) co-expressing human MEKK catalytic domain using biotinylated and GST-tagged rat GST-KN-SAPKalpha substrate incubated for 2 hrs by time-resolved fluorescence based assay
Sequence (P45985 whole entry, the tested form may be a part): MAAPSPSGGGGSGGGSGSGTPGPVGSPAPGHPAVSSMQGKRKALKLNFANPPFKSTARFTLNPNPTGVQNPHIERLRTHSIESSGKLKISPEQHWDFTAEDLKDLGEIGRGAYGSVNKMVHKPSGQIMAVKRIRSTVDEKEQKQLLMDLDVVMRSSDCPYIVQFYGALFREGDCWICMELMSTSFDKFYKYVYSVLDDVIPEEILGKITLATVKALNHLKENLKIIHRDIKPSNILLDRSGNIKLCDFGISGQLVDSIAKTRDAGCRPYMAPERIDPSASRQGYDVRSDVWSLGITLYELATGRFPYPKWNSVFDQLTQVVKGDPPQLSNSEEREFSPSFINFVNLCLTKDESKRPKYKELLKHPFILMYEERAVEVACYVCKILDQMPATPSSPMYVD
Documented IC50 across a set of molecules

Consider the following illustrative entries.
Nc1nc(N2CCCCCC2)c2c(n1)[nH]c1ccc(O)cc12; < 1000 nM
Cc1nc(N2CCCCC2)c2c(n1)[nH]c1ccc(C(=O)O)cc12; < 1000 nM
Cc1nc(N2CCCCC2)c2c(n1)[nH]c1ccc(C(N)=O)cc12; < 1000 nM

Now consider the entry below.
*Q* IC50 lookup needed for Cc1nc(NC(C)CO)c2c(n1)[nH]c1ccc(O)cc12 (centres undefined) , thanks.
*A* < 1000 nM

---

biological target: Dual specificity mitogen-activated protein kinase kinase 7 (Homo sapiens); assay: Inhibition of GST-tagged human MKK7 expressed in Escherichia coli (BL21(DE3) pLysS) co-expressing human MEKK catalytic domain using biotinylated and GST-tagged rat GST-KN-SAPKalpha substrate incubated for 1 hr by time-resolved fluorescence based assay
pIC50: −log10 of the molar value.
Documented pIC50 across a set of molecules

Consider the following illustrative entries.
C[C@H](CO)Nc1ncnc2[nH]c3ccc(O)cc3c12; > 6.00
CC(C)(C)OC(=O)NC1CCCN(c2ncnc3[nH]c4ccc(C(N)=O)cc4c23)C1 (configuration not stated); > 6.00
Oc1ccc2[nH]c3ncnc(NC4CCOCC4)c3c2c1; > 6.00
Nc1nc(N2CCCC2)c2c(n1)[nH]c1ccc(O)cc12; > 6.00
O=C1CCN(c2ncnc3[nH]c4ccc(O)cc4c23)CC1; > 6.00
OCC1CCCN(c2ncnc3[nH]c4ccc(O)cc4c23)C1 (configuration not stated); > 6.00
CC1CCCCN1c1nc(N)nc2[nH]c3ccc(O)cc3c12 (configuration not stated); > 6.00
CNc1nc(C)nc2[nH]c3ccc(O)cc3c12; 6.00
OCCC1CCCN(c2ncnc3[nH]c4ccc(O)cc4c23)C1 (configuration not stated); > 6.00
O=C(O)CCCCCN1CCN(c2ncnc3[nH]c4ccc(O)cc4c23)CC1; 6.00

*Q* pIC50 lookup needed for COC1CCN(c2ncnc3[nH]c4ccc(O)cc4c23)CC1 , thanks.
*A* > 6.00

*Q* pIC50 lookup needed for Oc1ccc2[nH]c3ncnc(N4CCC(O)CC4)c3c2c1 , thanks.
*A* > 6.00

---

Documented IC50 across a set of compounds
target: Dual specificity mitogen-activated protein kinase kinase 7 (Homo sapiens); test: Inhibition of GST-tagged human MKK7 expressed in Escherichia coli (BL21(DE3) pLysS) co-expressing human MEKK catalytic domain using biotinylated and GST-tagged rat GST-KN-SAPKalpha substrate incubated for 1 hr by time-resolved fluorescence based assay

Consider the following illustrative entries.
Oc1ccc2[nH]c3ncnc(N4CCCC(O)C4)c3c2c1 (stereo not given); < 1000 nM
Cc1nc(NC(C)CO)c2c(n1)[nH]c1ccc(O)cc12 (stereo not given); < 1000 nM
NCCNc1ncnc2[nH]c3ccc(C(N)=O)cc3c12; < 1000 nM
Oc1ccc2[nH]c3ncnc(N4CCCCC4)c3c2c1; < 1000 nM
NCc1ccc2[nH]c3nc(N)nc(N4CCCCC4)c3c2c1; 1000 nM
CN(Cc1ccccc1)c1nc(N)nc2[nH]c3ccc(O)cc3c12; < 1000 nM

*Q* IC50 lookup needed for CC1CCN(c2ncnc3[nH]c4ccc(C(N)=O)cc4c23)CC1 , thanks.
*A* < 1000 nM

*Q* IC50 lookup needed for Oc1ccc2[nH]c3ncnc(N4CCNCC4)c3c2c1 , thanks.
*A* < 1000 nM

*Q* IC50 lookup needed for NC(=O)c1ccc2[nH]c3ncnc(N4CCCCC4CO)c3c2c1 (stereo not given) , thanks.
*A* < 1000 nM

*Q* IC50 lookup needed for Cc1nc(N2CCCC2)c2c(n1)[nH]c1ccc(O)cc12 , thanks.
*A* 1000 nM

*Q* IC50 lookup needed for OCCCNc1ncnc2[nH]c3ccc(O)cc3c12 , thanks.
*A* < 1000 nM

---

biological target: Dual specificity mitogen-activated protein kinase kinase 7 (Homo sapiens); assay: Inhibition of GST-tagged human MKK7 expressed in Escherichia coli (BL21(DE3) pLysS) co-expressing human MEKK catalytic domain using biotinylated and GST-tagged rat GST-KN-SAPKalpha substrate incubated for 1 hr by time-resolved fluorescence based assay
Documented IC50 across a set of compounds

CC1CCCCN1c1ncnc2[nH]c3ccc(O)cc3c12 (stereo unspecified); < 1000 nM
CC(C)(C)OC(=O)NC1CCN(c2ncnc3[nH]c4ccc(O)cc4c23)CC1; < 1000 nM
Oc1ccc2[nH]c3ncnc(NC4CCCCCC4)c3c2c1; < 1000 nM
Nc1nc(N2CCNCC2)c2c(n1)[nH]c1ccc(O)cc12; 1000 nM
Cc1nc(N2CCC(CO)CC2)c2c(n1)[nH]c1ccc(O)cc12; 1000 nM

Now consider the entry below.
*Q* Hello, I am looking for reported IC50 with Dual specificity mitogen-activated protein kinase kinase 7 (Homo sapiens) for CC1CCN(c2ncnc3[nH]c4ccc(O)cc4c23)CC1 . Could you help?
*A* < 1000 nM

---

Molecular target: Dual specificity mitogen-activated protein kinase kinase 7 (Homo sapiens)
Sequence (O14733 whole entry): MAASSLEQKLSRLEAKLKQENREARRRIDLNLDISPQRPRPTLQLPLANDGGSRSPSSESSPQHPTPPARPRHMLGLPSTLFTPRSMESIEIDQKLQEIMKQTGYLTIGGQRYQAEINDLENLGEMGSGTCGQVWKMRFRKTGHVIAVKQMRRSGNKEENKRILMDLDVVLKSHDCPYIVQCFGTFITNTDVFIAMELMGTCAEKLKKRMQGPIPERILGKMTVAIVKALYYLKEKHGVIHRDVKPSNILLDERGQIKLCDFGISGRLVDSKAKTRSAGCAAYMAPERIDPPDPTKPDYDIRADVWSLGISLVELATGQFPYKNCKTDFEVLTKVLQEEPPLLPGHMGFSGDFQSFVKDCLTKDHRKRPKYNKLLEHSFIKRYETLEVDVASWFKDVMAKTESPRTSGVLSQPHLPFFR
Test: Inhibition of GST-tagged human MKK7 expressed in Escherichia coli (BL21(DE3) pLysS) co-expressing human MEKK catalytic domain using biotinylated and GST-tagged rat GST-KN-SAPKalpha substrate incubated for 1 hr by time-resolved fluorescence based assay
Documented IC50 across a set of compounds

Consider the following illustrative entries.
CN(c1nc(N)nc2[nH]c3ccc(O)cc3c12)C1CCCCC1; < 1000 nM
Cc1nc(N2CCCCCC2)c2c(n1)[nH]c1ccc(O)cc12; < 1000 nM
Nc1nc(N2CCC(C(=O)O)CC2)c2c(n1)[nH]c1ccc(O)cc12; 1000 nM

*Q* IC50 lookup needed for Oc1ccc2[nH]c3ncnc(N4CCCCCC4)c3c2c1 , thanks.
*A* < 1000 nM

*Q* IC50 lookup needed for COc1cc2[nH]c3nc(N)nc(N4CCCCC4)c3c2cc1OC , thanks.
*A* 1000 nM

*Q* IC50 lookup needed for CC(C)(C)OC(=O)N1CCC(Nc2ncnc3[nH]c4ccc(O)cc4c23)CC1 , thanks.
*A* < 1000 nM

# credit: ChEMBL document CHEMBL3714742
